Test: soluble on expression in E. coli; label from the status in PepcDB or PDB records

residue_string: MSSENAQLKKDLIKAVLSPLFPTATEGGENMDSNLKALLDAAIDQKVDESETVTAESILDPSLPARWIFARITPGTTISIVTDSGDMIGPVVFVAFDQVHGIVFVTQESSVTPAGQATTLIDVDKVESVTFFSLEHHHHHH
soluble on expression in E. coli: soluble
--
residue_string: MGSDKIHHHHHHMSKLNLVHLNGLRAVEAVGRLGSLQAAASELGVSIGAISQQVIKAEQQLQLQLFERTSRGMVPTDVAEPVLDRLSAGFRHLSGAVALALKSDDTVLTISVAPVFAARWLVHRIGAFSERFPTIRLRMEASDRLIDPSSSDVDLCIRVGRGDWPGVRAELLLEQKVFPVCTPAMAKRLQSPADLLELPIVEDGRAMFSWDVWLAAAGLPGRSVCTRHVFSEASLCLDAALAGQGVLLAWQTIASQQLQQGQLVAPFGPAVPTGLAHYFVSPEGARRNDKVDAFKRWLRDELHEDMTRLAKAIPFLGGPFLKGECG
soluble on expression in E. coli: not soluble
--
residue_string: MSLYKLYSMQRSGNSYKVRLALALLDAPYRAVEVDILRGESRTPDFLAKNPSGQVPLLETAPGRYLAESNAILWYLAVGTSLAPDTRMDRAEALQWMFFEQHALEPNIGSAYFWLCLVKGGRDLQTHALEDWLERGYAALQVMENHLKTNDYFAAGQLTIADIALYGYTHVADQCDFDLSTFPAVNAWLRRVEQTPGFITMDWTPETIAADPTSFAAEGHHHHHH
soluble on expression in E. coli: soluble
--
residue_string: VMNRMATALGGDYFDFISMPDGREVVFIGDVTGHDIQSSVVMSLVYGFLHHCALTVDDPLTMVSQLNRFLVRFADHGTELDHHFSSTLFLGIIDPASLRLEYVNAGHVPPLVLRRNSLHRLASTSPPVGFFAEAEVATGCFGLERGDRLLLYTDGILDASNGTETFGAERLDAFLTATGGSYTRFMDELAAALRDFGAGDPPDDDCSAIVIDI
soluble on expression in E. coli: not soluble
--
residue_string: MGSDKIHHHHHHMFPLVTITGEPFERGQQYGAATAALIRHSIASYARLFAYRRGMDWEAVQQAALAYEPLLHDVAPDLLTEMRGIAVGASRTLAEIIALNVRTELLAGVGVGFHHPEAAAALARNRAAGVPQHQEQLPATPATGSDDGECTTAAASPPATANGRVWLAQTWDWQGDQRAACVLLRVSGPDTPTLLTLTEAGMVAKIGLNEAGIAVGLNLLRSRADGQQQGMPVHVLLRQMLQSTDTVTARRLVSQIPAAGSSCITLAGADGELVALELTPTGIAEIPAQEGLLAHANHCLDGGTAAGECPLEPTSTTRERYGRAWELLHAAAGQIDLDVLQVILRDHDGAPRCICRHPDPRVAAVDRNESVCGVIIDLRGRTMHVAANIPCQAPFVPFML
soluble on expression in E. coli: not soluble
--
residue_string: VVPAQHRPPDRPGDPAHDPGRGRRLGIDVGAARIGVACSDPDAILATPVETVRRDRSGKHLRRLAALAAELEAVEVIVGLPRTLADRIGRSAQDAIELAEALARRVSPTPVRLADERLTTVSAQRSLRQAGVRASEQRAVIDQAAAVAILQSWLDERLAAMAGTQEGSDA
soluble on expression in E. coli: not soluble

====

Experiment: soluble on expression in E. coli; label from the status in PepcDB or PDB records
readout_kind: soluble on expression in E. coli

residue_string: MASLLDKAKDFVADKLTAIPKPEGSVTDVDLKDVNRDSVEYLAKVSVTNPYSHSIPICEISFTFHSAGREIGKGKIPDPGSLKAKDMTALDIPVVVSYSILFNLARDVGVDWDIDYELQIGLTIDLPVVGEFTIPISSKGEIKLPTFKDFF
reported_measurement: soluble
//
residue_string: MKITTEALRWWEDGETVGGRDLVGGGTWLGCTRHGRLAFLTNFKEASSFPAAKSRGDLPLRYLQSEKSPAEFAEEIQDEISLYNGFNLVVAHVLSKSMIYITNRPPHGDKLVTQVSPGIHVLSNANLDSPWPKVNSPNCVFLSLQCLRLREGFQQLLAENGSGEFPVKTMVEEVMTNTVKDEETELPHVFTPETEYHLSSIFVDMQRPTGRYGTRSISAIIVKSHGDGGGDGEICFYERHLEEGDSWKEHTQQFVIIQNQSI
reported_measurement: soluble
//
residue_string: MGSDKIHHHHHHAKTTTQHGNALAAYNVKRYKTVKNRNLFVKRYAFQQSYTNIFQTSPTQISSTKGKAVTFKSNVFLPVTYQRSADWGNPQSEVLTPNGNTLYELITTSSQSTTGRIVRYNLGALRHFGITSTHMDALRRATYDHSVGKLTATDKAILKNVTVGPLFNTGHGQSLARNPKNGQLWFIGKPGAVKSNVQQVSTKTLKPSTKVNFTLKNTVPMGSNLTFDKHGKAYFFTYSNGGWAPKGAVKIYQGTISTKSVHFHLVMQGLRYAPGTKPQSMAYNAKRNRLYFVSDSSLASIPVSKLGKLKASQVEGTNLNGHREFEGLQFTSNGSGYLLVNKGAELMQTTHATF
reported_measurement: not soluble
//
residue_string: DMKPNSTKIGVAEATDAALIQALQQRQVFTKTTQPTLSWEQYLELNLNSKSKRLALCNKLHLSYFNHKQLFRKLNLLQLTFDQVCQLLK
reported_measurement: not soluble

====

Assay: soluble on expression in E. coli; label from the status in PepcDB or PDB records

residue_string: MGSDKIHHHHHHMIPLHTSMRGLRCFCVAAECLSFKETAKRLYLTPSAVSHQIKQLEESLNQSLFIRQTRAVTLTEVGARFYQAIEPVMQQLVNTVSEFNQSDRMLEVSISMPEFFASELFMPKLIGWSSKYPNINLKLETIKSRSDMIKHTDASIMLSGKQQTNADVYDLFPITYIPACNAQLHAELSSQGFKALTQVPLILHKARPYAWHQWAENVGFDAFQPKQIIQLDSMFSVARAAEQGLGIALIPLPISQAWFDNGTLLSLFPHPLFSHDRYYLIRHTNEQQRPEVQLLIDWILKSFHDESH
soluble on expression in E. coli: not soluble
--
residue_string: MATFKDFRNSVKPNWCPGCGDFSVQAAIQRAAANVGLNPDELAVISGIGCSGRISGYINSYGVHSIHGRALPIAQGVKMANRDLTVIASGGDGDGFAIGMGHTIHSIRRNIDITYIVMDNQIYGLTKGQTSPRSEAGFKTKSTPQGSIEPSLNVMEMALTAGATFVAQSFSSDLKELTQIIEAGINHKGFSLINVFSPCVTYNKVNTYDWFKENLTKLSTVEGYDPSNRMMAMQTLMENNGLVTGLIYQNTKQPSYQELVKGYSEEPLVKSDLNMDQKMFDELVAEFM
soluble on expression in E. coli: not soluble

====

Assay: soluble on expression in E. coli; label from the status in PepcDB or PDB records

residue_string: ELPKKRELCKFYITGFCARAENCPYMHGDFPCKLYHTTGNCINGDDCMFSHDPLTEETRELLDKMLADDAEAGAEDEKEVEELKK
soluble on expression in E. coli: soluble
//
residue_string: SLIDFHFHAPVKEFLDFLGEFGEPAIKYFNAKVEVKGLKETLDYYESFGIKRFVVLPIDSTTFLGRRIPNQVINLDDRIVKFISVDPSKPNADEELKRSIKEFEPVGVKLHPQLQGFHPLDERALKIYEIIDNHGLIVVFHTGTSGIGAGVKSSIRLDYGRPIYFDEIAVRFQNMKIILAHFGWPWTEEAIAIALHKPNVYLDLSGWAPRYIPQVIWSNAKRLSDKLLFGSDFPLIRPERWLEEFKSVNLSQDIKDKILKHNAEKLVKKS
soluble on expression in E. coli: soluble

====

Assay: soluble on expression in E. coli; label from the status in PepcDB or PDB records

residue_string: MSLSVKILALDTATERCSVALLVGNTVYSRSEIAPRDHTKKVLPMVDEVLKEAGVTLQELDALAFGRGPGSFTGVRIGIGIAQGLAFGADLPMIGISTLAAMAQAAYRLQGLTHVASAIDARMEEVYWGRYVRQEDGSWQVAEAECVIAPALLAQTLTQDDLTQDEQIWATAGTGWDAYPALADLPLQLQTSEVLYPDAQDMAYLAQFELAQGNKVSVEQASPVYLRDTVAWKKLPGREEGHHHHHH
soluble on expression in E. coli: soluble
//
residue_string: MTYPYRTTMALNTYQYRETTMIDPKKIEQIARQVHESMPKGIREFGEDVEKKIRQTLQAQLTRLDLVSREEFDVQTQVLLRTREKLALLEQRISELENRSTEIKKQPDPETLPPTLLEHHHHHH
soluble on expression in E. coli: not soluble
//
residue_string: MSLGVLFSPPPASAYDGVEFLEFAVDEAVGARLGNWLKRLGFAEAGKHRSKEVQLLRQGDINIVLNAEPYSFGHNFFEAHGPSLCATALRVKDQQAALKRATAFRGQPFRGLVGPNECEVPAVRAPDGSLLYLVEQGTAGHTLYDTDFSLDNNATATGGLRRIDHMALALPAESLDSWVLFYKSLFDFAADDEVVLPDPYGLVKSRALRSQCGTLRLPLNISENRNTAIAHALSSYRGSGVHHIAFDCDDIFREVARAKLAGVPLLEIPLNYYDDLAARFDFDDEFLSELAYYNVLYDRDAQGGELFHVYTEPFEERFFFEIIQRKAGYAGYGAANVAVRLAAMAKARSGAARKEGHHHHHH
soluble on expression in E. coli: soluble
//
residue_string: MIILEKEQKEPNRLIKEKSPYLLQHAYNPVDWYPWGEEAFEKARKENKPVFLSIGYSTCHWCHMMAHESFEDEEVAGLMNEAFVSIKVDREERPDIDNIYMTVCQIILGRGGWPLNIIMTPGKKPFFAGTYIPKNTRFNQIGMLELVPRIKEIWEQQHEEVLDSAEKI
soluble on expression in E. coli: not soluble
//
residue_string: MAHHHHHHMGAVDYEVNETHLTGAQALSDYLLDTWYVHDMPRYGAVSCIDRNVTALLRFADEWRGTNVNVFLYNSSSHHQAGLSLATYYDLFIKSFLGRDSAFMRYEAELFNEPASQSQLGFIFIGAPGGRSAGGLPGRAVGRHGPCGAARGVDCDPARRRALLRCADDAPPGGGGGACEHCGDHGARVRAVCRRQGTPEEQVRQRLRGERAAGVGAARGALCVVHAGGVPRRCAERRRGSAVRVPAAARSRLR
soluble on expression in E. coli: not soluble
//
residue_string: MGSDKIHHHHHHQNTPIGENIELAGENPEELKVIYINKDVSTHFIAMEDIKYVDISVNDIVGDIPTGNSLRIKPTKEGASGVITIVTERFFVQYMLVYSSDLAKAYTRFNIPYADLRSYMNPEVNLTKAQMYDYAHRMFISKNKFYDVSSTSNLMKIVLNNIYTLDKYFFIDISMINKTKIRYDIDQIRFKIEDKKQTKATNFQSIEILPLMQVNKNLVFKKNYRNIFVFEKFTFPDEKVLTIEISEKQISGRTITLRIDYADILHADAFTE
soluble on expression in E. coli: not soluble
